- targetEntity: 5-hydroxytryptamine receptor 1A (Rattus norvegicus, UniProt P19327)
- Sequence (P19327 whole entry): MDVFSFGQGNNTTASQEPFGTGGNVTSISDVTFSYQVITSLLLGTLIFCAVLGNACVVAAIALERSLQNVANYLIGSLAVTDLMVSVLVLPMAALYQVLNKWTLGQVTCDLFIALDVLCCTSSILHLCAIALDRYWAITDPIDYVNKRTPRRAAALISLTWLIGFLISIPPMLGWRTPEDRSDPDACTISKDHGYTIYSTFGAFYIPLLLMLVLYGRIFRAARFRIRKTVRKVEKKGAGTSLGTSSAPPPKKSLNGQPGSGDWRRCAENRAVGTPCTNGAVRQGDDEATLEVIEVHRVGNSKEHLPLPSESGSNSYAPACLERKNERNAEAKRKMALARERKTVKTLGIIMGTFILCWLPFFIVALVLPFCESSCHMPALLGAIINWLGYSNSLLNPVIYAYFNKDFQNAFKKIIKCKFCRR
Record form. Attribute: pKi. Fill in for each entry.
Numbers only, as −log10 of the molar value.

| molecule | targetEntity | pKi |
| --- | --- | --- |
| CC(N)Cc1c[nH]c2ccccc12 (configuration not stated) | 5-hydroxytryptamine receptor 1A (Rattus norvegicus, UniProt P19327) | 6.28 |
| CCCCCn1cc(CC(C)N)c2ccccc21 (configuration not stated) | 5-hydroxytryptamine receptor 1A (Rattus norvegicus, UniProt P19327) | 5.62 |
| CCCCCn1ccc(CC(C)N)c1 (configuration not stated) | 5-hydroxytryptamine receptor 1A (Rattus norvegicus, UniProt P19327) | 5.12 |
| CCCCCCCCn1cc(CC(C)N)c2ccccc21 (configuration not stated) | 5-hydroxytryptamine receptor 1A (Rattus norvegicus, UniProt P19327) | 7.11 |

Return reported pKi values for all items listed beneath this line.
1. CCCn1cc(CC(C)N)c2ccccc21 (configuration not stated)
2. CCCCCc1cccc2c(CC(C)N)c[nH]c12 (configuration not stated)
3. CC(N)Cc1cn(Cc2ccccc2)c2ccccc12 (configuration not stated)
4. COc1ccc2[nH]cc(CC(C)N)c2c1 (configuration not stated)
5. CCCc1cccc2c(CC(C)N)c[nH]c12 (configuration not stated)

**Result**
1. 6.15
2. 5.16
3. 7.52
4. 8.15
5. 6.00

* * *

Answer each item with its documented Ki.
- targetEntity: Serotonin 2 (5-HT2) receptor (Rattus norvegicus, UniProt P30994+P08909+P14842)
- procedureText: Binding affinity against 5-hydroxytryptamine 2 receptor using [3H]ketanserin as radioligand
- Type: protein assay
Numbers only, in nM.

| compound | targetEntity | Ki [nM] |
| --- | --- | --- |
| CCCn1cc(CC(C)N)c2cc(OC)ccc21 (configuration not stated) | Serotonin 2 (5-HT2) receptor (Rattus norvegicus, UniProt P30994+P08909+P14842) | 635 |

Your task in this section: give Ki for each listed record.
1. CCCc1cccc2c(CC(C)N)c[nH]c12 (configuration not stated)
2. COc1ccc2c(c1)c(CC(C)N)cn2Cc1ccccc1 (configuration not stated)
3. CCCn1cc(CC(C)N)c2ccccc21 (configuration not stated)
4. COc1ccc2[nH]cc(CC(C)N)c2c1 (configuration not stated)

**Result**
1: 1040; 2: 250; 3: 1550; 4: 345

* * *

- targetEntity: 5-hydroxytryptamine receptor 1A (Rattus norvegicus, UniProt P19327)
pKi: −log10 of the molar value.
endpoint: pKi

These recorded examples may help you get a feel for the data.
| compound | measuredResult |
| --- | --- |
| CC(N)Cc1cc[nH]c1 (stereo not drawn) | < 5.00 |
| COc1ccc2c(c1)c(CC(C)N)cn2Cc1ccccc1 (stereo not drawn) | < 5.00 |

**Query** What reported pKi corresponds to CCCn1ccc(CC(C)N)c1 (stereo not drawn) on 5-hydroxytryptamine receptor 1A (Rattus norvegicus, UniProt P19327)?
**Result** < 5.00

* * *

Please go through the items and note down their Ki.
- targetEntity: Serotonin 2 (5-HT2) receptor (Rattus norvegicus, UniProt P30994+P08909+P14842)
- procedureText: Binding affinity against 5-hydroxytryptamine 2 receptor using [3H]ketanserin as radioligand
- Type: protein assay
Answers are plain numbers, in nM.

Example compounds with recorded Ki:
| compound | targetEntity | Ki, nM |
| --- | --- | --- |
| CC(N)Cc1cn(Cc2ccccc2)c2ccccc12 (configuration not stated) | Serotonin 2 (5-HT2) receptor (Rattus norvegicus, UniProt P30994+P08909+P14842) | 160 |
| CCCCCc1cccc2c(CC(C)N)c[nH]c12 (configuration not stated) | Serotonin 2 (5-HT2) receptor (Rattus norvegicus, UniProt P30994+P08909+P14842) | 140 |
| CCCCCn1ccc(CC(C)N)c1 (configuration not stated) | Serotonin 2 (5-HT2) receptor (Rattus norvegicus, UniProt P30994+P08909+P14842) | 5200 |
| CCCCCCCCn1cc(CC(C)N)c2ccccc21 (configuration not stated) | Serotonin 2 (5-HT2) receptor (Rattus norvegicus, UniProt P30994+P08909+P14842) | 280 |

**Query** Which measured Ki value corresponds to CCCCCn1cc(CC(C)N)c2ccccc21 (configuration not stated) ?
**Result** 100

Hey, just so you know, these numbers are from ChEMBL document CHEMBL1124981.
